# Tested on: RXF-631 renal
# Assay comment: NCI tumour cell line growth inhibition, 48 h
Assay metric: TGI

[in] Quick one: TGI of CN(C)CC(/C(Cc1ccccc1)=N\NC(=O)C[n+]1ccccc1)c1ccccc1 (configuration not stated) ?
[out] > 100 µM

[in] Quick one: TGI of N#Cc1cccc(N2C(=O)c3c(c(-c4ccccc4)c(-c4ccc(Sc5ccc(-c6c(-c7ccccc7)c7c(c(-c8ccccc8)c6-c6ccccc6)C(=O)N(c6cccc(C#N)c6)C7=O)cc5)cc4)c(-c4ccccc4)c3-c3ccccc3)C2=O)c1 ?
[out] > 100 µM

[in] Quick one: TGI of O=C(Nc1cccc2ccccc12)Oc1ccccc1C1CCCCC1 ?
[out] 36.7 µM

[in] Quick one: TGI of OCCOc1ccc(-c2cc(-c3ccccn3)nc(-c3ccccn3)c2)cc1 ?
[out] > 100 µM

[in] Quick one: TGI of FC(F)(F)C1(Cl)C(c2ccccc2)=C1c1ccccc1 ?
[out] 29.2 µM

[in] Quick one: TGI of CC1=CC2CC(C)=C(CC[C@]3(C)CC[C@H]([C@@H](C)C(=O)O)OO3)C(C)(C)C2CC1 (some centres not stated) ?
[out] 2.95 µM

Attention now shifts to the item below.
[in] Quick one: TGI of c1ccc(SC2(Sc3ccccc3)CCCC2)cc1 ?
[out] > 100 µM

----------
# System: U251 CNS
Tick one outcome: TRUE (active), FALSE (inactive)

[in] What did the test return for COc1cccc(C2CC(c3cc(OC)c(OC)c(OC)c3)=NN2)c1 (stereo unspecified) ?
[out] FALSE

[in] What did the test return for FC(F)(F)c1ccc(-c2nc(-c3nc4cc(Cl)c(Cl)cc4[nH]3)c3ccccn23)cc1 ?
[out] FALSE

[in] What did the test return for CC(=O)C1=C(O)C=C2Oc3c(C(=O)/C=C/c4cc(C(F)(F)F)cc(C(F)(F)F)c4)c(O)c(C)c(O)c3[C@]2(C)C1=O ?
[out] FALSE

[in] What did the test return for COc1cccc([C@H]2CC(=O)c3cc4c(cc3N2)OCO4)c1 ?
[out] TRUE

[in] What did the test return for Cn1cc(-c2nonc2-c2c[nH]c3ccccc23)c2ccccc21 ?
[out] FALSE

Continuing:
[in] What did the test return for Cc1c2cnccc2c(C)c2c1c1cc(C3OCCCO3)ccc1n2C ?
[out] TRUE

[in] What did the test return for COc1cc(-c2nn3c(/C=C4/C(=O)Nc5ccccc54)c(-c4ccc(C)cc4)nc3s2)cc(OC)c1OC ?
[out] FALSE

----------
# Tested on: HT29 colon
# Assay comment: NCI tumour cell line growth inhibition, 48 h
Assay metric: TGI

The examples below pair each entry with its known result.
[in] Quick one: TGI of CC1CC2C3CC(F)C4=CC(=O)C=CC4(C)C3(F)C(O)CC2(C)C1(O)C(=O)COC(=O)C(C)(C)C (stereo not given) ?
[out] > 100 µM

[in] Quick one: TGI of O=S(=O)(Nc1ncccn1)c1ccc(N=Nc2ccc(O)c3ncccc23)cc1 ?
[out] 78 µM

[in] Quick one: TGI of CN(C)CCCOc1ccccc1NC1=C(Cl)C(=O)C(Nc2ccccc2OCCCN(C)C)=C(Cl)C1=O ?
[out] 0.584 µM

# batch: return TGI for each of the 7 compounds below
1. Cc1[nH]c2ncn(/N=C/c3ccccc3O)c(=N)c2c1Cc1ccccc1
2. O=C(c1ccc2ccccc2c1O)N1CCCCC1
3. C1=C(c2ccccc2)CN(c2ccccc2)OC1
4. C(=Nc1ccccc1)C1CCCC[N-]1.C(=Nc1ccccc1)C1CCCC[N-]1.[Cu+2].[O-][Cl+3]([O-])([O-])O (stereo not given)
5. O=C(CP(c1ccccc1)c1ccccc1)c1cccc(C(=O)CP(c2ccccc2)c2ccccc2)c1
6. CCC[CH2][Sn]([CH2]CCC)([O]C(=O)c1c(F)cccc1F)[O]C(=O)c1c(F)cccc1F
7. C1=C\SS/C=C\SS/C=C\SS/C=C\SS/1

[out]
1. > 100 µM
2. > 100 µM
3. > 100 µM
4. 30.8 µM
5. > 100 µM
6. 2.87 µM
7. > 100 µM

Source of measurements: PubChem BioAssay (NCI)
